# assay.comment: qHTS assay to identify small molecule antagonists of the estrogen related receptor (ERR) signaling pathway from Tox21 library - cell viability counter screen (AID 1224834); also: nearly all actives have a fitted effect of over 30% in size
# condition.parameters: ERR reporter cells viability, CellTiter-Fluor, 17.5 h; series mostly up to 92.4 µM
Inconclusive results are not listed. Activity calls are given as the source filed them. Calls follow the shape of the dose curve; as a rule, active = well fitted cell-killing curve with a large enough effect in the repeat runs; inconclusive = weak or mixed curves; inactive = flat fitted curve, though single readings scatter.
Mark one answer only. Choices: active, inactive

Field: outcome | Entry: `Cc1ccc(O)c(C(C)(C)C)c1` inactive

Just curious, what result did `O=c1[nH]sc2ccccc12` get here? active

What is the recorded call for this compound in the test? `COCCCC/C(=N\OCCN)c1ccc(C(F)(F)F)cc1` inactive

Which outcome was entered for the compound C=C(C)C(=O)OCC(O)COc1ccc(C(C)(C)c2ccc(OCC(O)COC(=O)C(=C)C)cc2)cc1 (stereo unspecified) in this test? active

Tell me the assay call for `CCOC(=O)O[C@H](C)OC(=O)c1ccc2c(c1)cc(C(=O)NC1CCN(C(C)C)CC1)n2Cc1cc(-c2ccc(Cl)s2)on1` please. active

Returns: the outcome recorded for `CN(C)C(=O)C1(N2CCCCC2)CCN(CC[C@@]2(c3ccc(Cl)c(Cl)c3)CN(C(=O)c3ccccc3)CCO2)CC1` in this assay. active

----------
# assay.comment: qHTS assay to identify small molecule antagonists of the TGF-beta/Smad signaling pathway - cell viability counter screen (AID 1346824); also: nearly all actives have a fitted effect of over 50% in size
# condition.parameters: SBE-bla HEK293T viability, CellTiter-Glo luminescence; series mostly up to 76.8 µM
Results filed as inconclusive are left out. Calls of active or inactive are those of the source. Calls follow the shape of the dose curve; as a rule, active = well fitted cell-killing curve with a large enough effect in the repeat runs; inconclusive = weak or mixed curves; inactive = flat fitted curve, though single readings scatter.
The categories you may choose from are 1 for active, 0 for inactive

Check out these entries, answers already filled in.
1) O=C(OCC(COC(=O)c1ccccc1)(COC(=O)c1ccccc1)COC(=O)c1ccccc1)c1ccccc1
0
2) COc1c(C)c2c(c(O)c1C/C=C(\C)CCC(=O)O)C(=O)OC2
0
3) COc1ccc(CN2CCN(C(c3ccc(F)cc3)c3ccc(F)cc3)CC2)c(OC)c1OC
1

Hey, what did the test say about `COCCCC/C(=N\OCCN)c1ccc(C(F)(F)F)cc1` ? 0

Dear all, I need the recorded test outcome for Clc1ccc(C(Cn2ccnc2)OCc2ccc(Sc3ccccc3)cc2)c(Cl)c1 (stereo not given) , thank you. 0

----------
# assay.comment: qHTS assay to identify small molecule antagonists of the TGF-beta/Smad signaling pathway - cell viability counter screen (AID 1346824); also: nearly all actives have a fitted effect of over 50% in size
# condition.parameters: SBE-bla HEK293T viability, CellTiter-Glo luminescence; series mostly up to 76.8 µM
Results filed as inconclusive are left out. Activity calls are given as the source filed them. The call rests on the fitted dose curve; in most records, active means well fitted cell-killing curve with a large enough effect in the repeat runs; inconclusive means weak or mixed curves; inactive means flat fitted curve, though single readings scatter.
Could you please pick one outcome from this set? Yes = active, No = inactive

1) CCCCCCCCCCCC(=O)NCCCN(C)C
Yes

Please turn your attention to the following entry.
Hello, I am checking results. What call was entered for `CC[C@H]1O[C@]2(CC[C@@H]1C)C[C@@H]1C[C@@H](C/C=C(\C)C[C@@H](C)/C=C/C=C3\CO[C@@H]4[C@H](O)C(C)=C[C@@H](C(=O)O1)[C@]34O)O2` ? Yes

----------
# tested.target: Peroxisome proliferator-activated receptor gamma (Homo sapiens)
# assay.comment: qHTS assay to identify small molecule agonists of the peroxisome proliferator-activated receptor gamma (PPARg) signaling pathway (AID 743094); also: potency is read from the fitted curve at half-maximal effect; as to activation: % is scaled to controls: 0 for no effect and ±100 for the full control effect
# condition.parameters: HEK293H PPARg-UAS-bla, beta-lactamase FRET ratio, 17 h; series mostly up to 57 µM
Results filed as inconclusive are left out. Activity calls are given as the source filed them. Calls come from the whole dose curve; as a rule, active = well fitted activation curve with a large enough effect in the signal ratio in the repeat runs (not every such curve was filed as active); inconclusive = weak or mixed curves, or effect the other way; inactive = no such curve, though single readings can be large or run the other way; the % refers to the signal ratio.
readout: Potency

Example entries begin here.
1) O=C1Cc2cc(CCN3CCN(c4nsc5ccccc45)CC3)c(Cl)cc2N1
inactive
2) CC(C)(C)CC(C)(C)c1ccc(OCCOCC[N+](C)(C)Cc2ccccc2)cc1
inactive
3) C1CCCC1
inactive
4) CCc1oc2ccccc2c1C(=O)c1cc(Br)c(O)c(Br)c1
3.01 µM (active)

Please list Potency recorded for the molecule `NNc1nc(-c2ccccc2)cs1` inactive

Dear colleague, please send me the reported Potency for `CNC(=O)c1ccccc1` when you can. inactive

----------
# assay.comment: Caspase-3/7 induction in CHO-K1 cells by small molecules, qHTS cell viability counter screen (AID 1346979); also: nearly all actives have a fitted effect of over 35% in size
# condition.parameters: CellTiter-Fluor fluorescence, 17 h; series mostly up to 92.4 µM
Results filed as inconclusive are left out. Active and inactive are the calls of the source. Calls come from the whole dose curve; as a rule, active = well fitted cell-killing curve with a large enough effect in the repeat runs; inconclusive = weak or mixed curves, or effect the other way; inactive = no such curve, though single readings can be large or run the other way.
Outcome field: choose from true (1) for active, false (0) for inactive

1. Nc1nc2ccccc2n1Cc1ccc(F)cc1
true (1)
2. CN(C/C=C/C#CC(C)(C)C)Cc1cccc2ccccc12
false (0)

API: the following record is the query input.
// param item: `Cc1cc(O)c(C(C)(C)C)cc1Sc1cc(C(C)(C)C)c(O)cc1C` ; yields the recorded call true (1)

----------
# assay.comment: qHTS assay to identify small molecule HDAC inhibitors - cell viability counter screen (AID 1259365); also: % is scaled to controls: 0 for no effect and ±100 for the full control effect; nearly all actives have a fitted effect of over 50% in size
# condition.parameters: HCT-116 viability, CellTiter-Glo ATP luminescence, 2 h; series mostly up to 92.4 µM
Active and inactive are the calls of the source. Calls come from the whole dose curve; as a rule, active = well fitted cell-killing curve with a large enough effect in the repeat runs; inconclusive = weak or mixed curves, or effect the other way; inactive = flat fitted curve, though single readings scatter.
readout: outcome

Worked examples, 4 compounds total:
1) CC(=O)S[C@@H]1CC2=CC(=O)CC[C@]2(C)[C@H]2CC[C@@]3(C)[C@@H](CC[C@@]34CCC(=O)O4)[C@H]12
inactive
2) CC(C)c1ccc2c(c1)CC[C@H]1[C@](C)(CN)CCC[C@]21C
inactive
3) CN(C)[C@@H]1C(=O)C(C(N)=O)=C(O)[C@@]2(O)C(=O)C3=C(O)c4c(O)cccc4C[C@H]3C[C@@H]12
inactive
4) Oc1cccc2cc3cccc(O)c3c(O)c12
inactive

Shift focus to the following entry.
Provide only the value of recorded outcome for `O=C(Nc1cccc([N+](=O)[O-])c1)c1cc2ccccc2cc1O` inactive

----------
# assay.comment: qHTS assay for small molecule disruptors of the mitochondrial membrane potential - cell viability (AID 720634); also: nearly all actives have a fitted effect of over 20% in size
# condition.parameters: HepG2 viability, ATP luminescence (CellTiter-Glo), 1 h; series mostly up to 83.2 µM
Inconclusive results are not listed. Active and inactive are the calls of the source. Calls follow the shape of the full dose curve.
// one of active, inactive, no free text

What was the test verdict on `Cc1cc(O)c2ccccc2c1O` ? inactive

Outcome? `NNc1nc(-c2ccccc2)cs1` inactive

Dear all, I need the recorded test outcome for `N=C1N=C(N)c2ccccc21` , thank you. inactive

// return assay outcome for `COc1cccc2c1C(=O)c1c(O)c3c(c(O)c1C2=O)C[C@@](O)(C(=O)CO)C[C@@H]3O[C@H]1C[C@H](N)[C@H](O[C@@H]2CCCCO2)[C@H](C)O1` inactive

Field: outcome | Entry: `COCCCC/C(=N\OCCN)c1ccc(C(F)(F)F)cc1` inactive

Hi team, can someone confirm the assay call for `O=C(Oc1cccc2cccnc12)c1ccccc1` ? inactive

Per the records of this test, what outcome belongs to `COc1cc(-c2nc(NC(=O)c3cc4cc(C)cc(C)c4n3CC(=O)O)sc2CCC2CCCCC2)c(OC)cc1Cl` ? inactive

Given `CCc1cc(SCc2sc(-c3ccc(C(F)(F)F)cc3)nc2CN2CCN(c3ccc(OC)cc3)CC2)ccc1OCC(=O)O` , state the outcome it received in this test. inactive

Per the assay record, what outcome was assigned to `C/C=C1/C(=O)C[C@H]2[C@@H]3CCC4=CC(=O)CC[C@]4(C)[C@H]3CC[C@]12C` ? inactive

Assay outcome for `O=C(Nc1ccc(Oc2ccc(Cl)cc2)c(Cl)c1)c1cc(I)cc(I)c1O` : what was it? inactive

// return assay outcome for `CCCCN(CCCC)c1ccc(C(=O)c2ccccc2C(=O)O)c(O)c1` inactive

Short answer needed: outcome of this test for `Cc1ccc(O)c2ncccc12` ? inactive

Each molecule tested received a call. Report the one for `C[C@@H](NCCCc1cccc(C(F)(F)F)c1)c1cccc2ccccc12` . active

Recorded test outcome, item `Cc1cc(CCN2CCN(c3nsc4ccccc34)CC2)cc2c1NC(=O)CC2(C)C` active

Entry `O=c1[nH]sc2ccccc12` : call = ? inactive

Any idea what this test logged for `CS(=O)(=O)CCNCc1ccc(-c2ccc3ncnc(Nc4ccc(OCc5cccc(F)c5)c(Cl)c4)c3c2)o1` ? inactive

----------
# assay.comment: qHTS assay to identify small molecule agonists of the TGF-beta/Smad signaling pathway - cell viability counter screen (AID 1346829); also: nearly all actives have a fitted effect of over 45% in size
# condition.parameters: SBE-bla HEK293T viability, CellTiter-Glo luminescence, 5 h; series mostly up to 76.8 µM
Results filed as inconclusive are left out. The source made the active and inactive calls. Calls come from the whole dose curve; as a rule, active = well fitted cell-killing curve with a large enough effect in the repeat runs; inconclusive = weak or mixed curves, or effect the other way; inactive = flat fitted curve, though single readings scatter.
A correct response names exactly one class from active, inactive

1) NNC(=O)c1cccc(C(=O)NN)c1
inactive
2) OC1(c2ccc(Cl)c(C(F)(F)F)c2)CCN(CCCC(c2ccc(F)cc2)c2ccc(F)cc2)CC1
active
3) Clc1ccc2n[nH]nc2c1
inactive
4) CCCC(c1cc(C(C)(C)C)c(O)cc1C)c1cc(C(C)(C)C)c(O)cc1C
active
5) Cc1onc(-c2c(Cl)cccc2Cl)c1C(=O)N[C@@H]1C(=O)N2[C@@H]1SC(C)(C)[C@@H]2C(=O)O
inactive
6) CC[C@H]1O[C@]2(CC[C@@H]1C)C[C@@H]1C[C@@H](C/C=C(\C)C[C@@H](C)/C=C/C=C3\CO[C@@H]4[C@H](O)C(C)=C[C@@H](C(=O)O1)[C@]34O)O2
active
7) O=C(OCC1CO1)C1CCCCC1C(=O)OCC1CO1 (configuration not stated)
inactive
8) O=C(Nc1ccc(Oc2ccc(Cl)cc2)c(Cl)c1)c1cc(I)cc(I)c1O
inactive

State the result this test recorded for CCC1OCC(COc2ccc(Oc3ccccc3)cc2)O1 (configuration not stated) . inactive

Recorded test outcome, item `CN(C)c1ccc(SC#N)cc1` inactive

Just curious, what result did `Cc1cccc(S(=O)(=O)O)c1C` get here? inactive

Entry `O=Cc1cc(O)ccc1Br` : call = ? inactive

Per the records of this test, what outcome belongs to Cc1nc(-c2ccc3c(c2)CCN(CCC2CCC(NC(=O)/C=C/c4ccc(F)cc4)CC2)CC3)no1 (configuration not stated) ? inactive

// return assay outcome for `C/C=C1/C(=O)C[C@H]2[C@@H]3CCC4=CC(=O)CC[C@]4(C)[C@H]3CC[C@]12C` inactive

Answer briefly: the call reported for `CCCCCCCCCCCCc1ccc(O)cc1` in this assay. active

Look up the recorded call for CCCCCCCCNC(C)C(O)c1ccc(SC(C)C)cc1 (configuration not stated) in this test. active

Call for entry `CCCCCCCC(=O)[O-].CCCCCCCC(=O)[O-].[Zn+2]` : inactive

Returns: the outcome recorded for `CC(C)=CCOc1ccc(/C=C/C(=O)c2ccc(OCC=C(C)C)cc2OCC(=O)O)cc1` in this assay. inactive

How did this test come out for `CCCCN1CCCC[C@H]1C(=O)Nc1c(C)cccc1C` ? inactive

What did the test return for `CCN(C(=O)c1cc(C)cc(OC[C@H](C)Nc2ccncc2)c1)C(C)C` ? inactive

How was CC(=O)OCC(C)OC(C)=O (configuration not stated) classified in this test? inactive

Dear colleague, could you share the recorded outcome for `CC[C@@]1(O)C(=O)OCc2c1cc1n(c2=O)Cc2cc3c(CN(C)C)c(O)ccc3nc2-1` when you have a moment? inactive

Lab log entry: `C[C@]12CCC(=O)C=C1CC[C@@H]1[C@@H]2[C@@H](O)C[C@@]2(C)[C@H]1CC[C@]2(O)C(=O)COC(=O)CCC(=O)O` — outcome as called in the assay? inactive

Answer briefly: the call reported for CSc1ccc2c(c1)C(N1CCN(C)CC1)Cc1ccccc1S2 (configuration not stated) in this assay. inactive

Query: recorded result category for `O=C1c2c(O)ccc(Nc3ccc(CCO)cc3)c2C(=O)c2c([N+](=O)[O-])ccc(O)c21` in this test inactive

Which outcome was entered for the compound `C/C=C(\C)C(=O)OCc1ccccc1` in this test? inactive

# fetch the recorded call for `O=C1c2ccccc2Cc2ccccc21` here inactive
